B1: C22orf31 (parent)
chain: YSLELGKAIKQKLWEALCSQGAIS

- Variants of: B1
- procedure-details: protein stability index of a GFP-peptide fusion (GPS, HEK-293T) (PSI 1-6); higher = more stable;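 also: lentivirally expressed fusions sorted by FACS into six bins by GFP to DsRed ratio, PSI derived from sequencing read proportions per bin multiplied by bin number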
- experimental-setup: c terminus: a fixed tail appended
quantity: protein stability index

Use the examples below as a reference point.
protein stability index for `I9E` ? 2.97

Same again, this time with `E15F` 3

Same again, this time with `E4A` 2.96

Same again, this time with `G21F` 2.94

Same again, this time with `Y1L` 2.91

Turning now to a further variant:
protein stability index for `Q20I` ? 2.97
